Where these numbers come from: patent US20240209100A1

Recorded measurements of HEK-Blue IL-18: Fold over Background, one per entry
- assay.system: T1, IL-18 receptor (IL-18Rα/IL-18Rβ) overexpressed on HEK-Blue IL-18 cells (Homo sapiens (Human), UniProt Q13478 19-541; O95256 20-599)
- T1 sequence 1: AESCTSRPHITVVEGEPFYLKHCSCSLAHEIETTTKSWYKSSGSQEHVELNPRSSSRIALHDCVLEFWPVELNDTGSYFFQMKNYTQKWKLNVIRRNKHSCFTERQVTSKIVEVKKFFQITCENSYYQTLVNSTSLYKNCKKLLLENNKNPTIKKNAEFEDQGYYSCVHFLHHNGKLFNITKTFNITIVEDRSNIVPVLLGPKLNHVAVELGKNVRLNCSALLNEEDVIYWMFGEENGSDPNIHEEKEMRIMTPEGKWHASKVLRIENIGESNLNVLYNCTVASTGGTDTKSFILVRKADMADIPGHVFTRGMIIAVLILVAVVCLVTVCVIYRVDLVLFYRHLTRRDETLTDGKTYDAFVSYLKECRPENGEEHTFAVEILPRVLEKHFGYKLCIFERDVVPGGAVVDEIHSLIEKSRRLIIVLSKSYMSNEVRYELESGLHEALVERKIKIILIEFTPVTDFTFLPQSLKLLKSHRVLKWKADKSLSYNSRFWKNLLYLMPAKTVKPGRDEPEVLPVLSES
- T1 sequence 2: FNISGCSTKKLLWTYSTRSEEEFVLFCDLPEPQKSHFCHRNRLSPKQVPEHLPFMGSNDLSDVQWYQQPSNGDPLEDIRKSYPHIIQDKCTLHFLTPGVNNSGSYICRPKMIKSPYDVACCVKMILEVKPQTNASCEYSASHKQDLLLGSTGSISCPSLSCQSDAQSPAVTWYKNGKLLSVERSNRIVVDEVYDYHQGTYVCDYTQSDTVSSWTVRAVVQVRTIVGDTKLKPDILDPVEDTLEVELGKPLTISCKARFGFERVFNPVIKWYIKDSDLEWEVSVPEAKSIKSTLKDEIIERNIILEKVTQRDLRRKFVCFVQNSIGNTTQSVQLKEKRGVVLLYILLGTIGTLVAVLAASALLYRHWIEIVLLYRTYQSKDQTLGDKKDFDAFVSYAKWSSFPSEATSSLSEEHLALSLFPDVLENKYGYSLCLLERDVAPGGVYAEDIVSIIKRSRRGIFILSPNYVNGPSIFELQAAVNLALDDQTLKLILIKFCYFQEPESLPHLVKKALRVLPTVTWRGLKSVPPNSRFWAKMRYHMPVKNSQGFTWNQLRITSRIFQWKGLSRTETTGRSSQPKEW
- experiment.description: cell-based or functional assay
# value in fold; strip the unit string

DGL312 (bispecific antibody, V domains shown) V domain 1: QVQLVESGGGLVQAGGSLRLSCAASGRTFSSYDMGWFRQAPGKEREFVAALRWSGGSTSYADSVKGRFTISRDNAKNTVYLHMNSLKPEDTAVYYCAATLETDSGTYWADYWGQGTQVTVSS V domain 2: QVQLVESGGGLVQAGGSLRLSCAASGMFFSIGEMGWYRQAPGKQREMVARITRDGRINYADSVEGRFTASRNVAKTTLFLQMNSLKPEDTANYQCTVRRWDEEYWGKGTLVTVSD
2.7

Moving on to another binder below.
Report HEK-Blue IL-18: Fold over Background for DGL307 (bispecific antibody, V domains shown) V domain 1: QVQLVESGGGLVQAGGSLRLSCAASGRTFSSYTMGWFRQAPGKEREFVAAISWSAGRTYYADSVKGRFTISRDNAKNTVYLQMNSLKPEDTAVYFCAAEEAPDWAPIDCSGYGCLSLYDYWGQGTQVTVSS V domain 2: QVQLQESGGGLVQPGGSLGLSCAASGIKISVNSMAWYRQAPGERREMVAVISSGGSAVYADSVKGRFTISRDNAKNMVYLQMNSLKPEDTAVYYCHPGSAAYRDYWGQGTQVTVSS please. 1.5
